Numbers sourced from patent US9725445B2.

molecular target: JAK1 (Homo sapiens (Human)); assay: Jak biochemical HTRF assay, JAK1; settings: HTRF biochemical assay, recombinant GST-tagged catalytic domain; read-out: JAK1 IC50
observationType: IC50 (nM)
All answers are understood in nM, so give the number only.

Solved cases below.
Please fill in: IC50 reported for N#C[C@H]1CCCC[C@@H]1n1nc(Nc2ccc3c(c2)C(O)(CO)CCS3(=O)=O)c2c(=O)[nH]ccc21 (stereo partly shown) = 18

Please fill in: IC50 reported for CC(C)S(=O)(=O)c1ccc(Nc2nn([C@H]3CCC[C@@H]3C#N)c3cc[nH]c(=O)c23)cc1 = 0.11

Please fill in: IC50 reported for CC1(O)CN([C@H]2CC[C@H](n3nc(Nc4ccc(Cl)cc4)c4c(=O)[nH]ccc43)[C@@H](C#N)C2)C1 = 0.24

Now look at this one.
Please fill in: IC50 reported for Cc1cc(Nc2nn([C@H]3CCCC[C@@H]3C#N)c3cc[nH]c(=O)c23)ccc1C(=O)N1CCOCC1 = 0.47

###

target: JAK1 (Homo sapiens (Human), UniProt P23458); assay: Jak biochemical HTRF assay, JAK1; conditions: JAK1 IC50, HTRF biochemical assay, recombinant GST-tagged catalytic domain
Sequence (P23458 875-1153): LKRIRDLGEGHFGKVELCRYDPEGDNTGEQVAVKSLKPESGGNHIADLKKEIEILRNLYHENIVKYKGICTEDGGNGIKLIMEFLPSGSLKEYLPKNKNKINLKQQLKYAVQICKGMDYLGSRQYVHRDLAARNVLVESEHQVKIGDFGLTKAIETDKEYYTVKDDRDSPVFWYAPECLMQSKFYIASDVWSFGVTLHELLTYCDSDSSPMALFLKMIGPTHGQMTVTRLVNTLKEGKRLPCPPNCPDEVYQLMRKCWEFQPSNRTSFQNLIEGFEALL
observationType: pIC50
Notebook: values listed as pIC50 are -log10 of the concentration (mol/L).

Reported pIC50 (JAK1 (Homo sapiens (Human), UniProt P23458)) for entry CC(C)(C)OC(=O)N1[C@@H]2CC[C@H]1C[C@@H](c1ccc(Nc3nn([C@H]4CCCC[C@@H]4C#N)c4cc[nH]c(=O)c34)cc1)C2 (single isomer, unassigned) [Example 3-165] is 8.59

Now look at this one.
Reported pIC50 (JAK1 (Homo sapiens (Human), UniProt P23458)) for entry CC(C)(C)OC(=O)N1[C@@H]2CC[C@H]1C[C@H](c1ccc(Nc3nn([C@H]4CCCC[C@@H]4C#N)c4cc[nH]c(=O)c34)cc1)C2 (single isomer, unassigned) [Example 3-166] is 9.02

###

biological target: JAK1 (Homo sapiens (Human)); assay: Jak biochemical HTRF assay, JAK1; details: HTRF biochemical assay, recombinant GST-tagged catalytic domain; read-out: JAK1 IC50
Reported pIC50 values for the following compounds.
Notebook: values listed as pIC50 are -log10 of the concentration (mol/L).

Please fill in: pIC50 reported for N#C[C@H]1CCCC[C@@H]1n1nc(Nc2cccc(Cn3ccnc3)c2)c2c(=O)[nH]ccc21 = 9.11

Please fill in: pIC50 reported for CC(=O)NCc1cc(Nc2nn([C@H]3CCCC[C@@H]3C#N)c3cc[nH]c(=O)c23)ccc1S(=O)(=O)N(C)C = 10.00

Please fill in: pIC50 reported for N#C[C@H]1CCCC[C@@H]1n1nc(Nc2ccc3c(c2)CNC3C(F)F)c2c(=O)[nH]ccc21 (single isomer, unassigned) [Example 15-27] = 9.66

Please fill in: pIC50 reported for CC1(C)C(O)c2cc(Nc3nn([C@H]4CCCC[C@@H]4C#N)c4cc[nH]c(=O)c34)ccc2S1(=O)=O (single isomer, unassigned) [Example 3-173] = 10.03

Please fill in: pIC50 reported for CS(=O)(=O)c1ccc(Nc2nn([C@@H]3CCCC[C@H]3C#N)c3cc[nH]c(=O)c23)cc1 = 8.03

Now look at this one.
Please fill in: pIC50 reported for N#C[C@H]1CCC[C@@H]1n1nc(Nc2ccc(C(N)C(F)(F)F)cc2)c2c(=O)[nH]ccc21 (single isomer, unassigned) [Example 3-103] = 9.55

###

molecular target: JAK1 (Homo sapiens (Human), UniProt P23458); assay: Jak biochemical HTRF assay, JAK1; conditions: HTRF biochemical assay, recombinant GST-tagged catalytic domain; read-out: JAK1 IC50
observationType: pIC50
Notebook: values listed as pIC50 are -log10 of the concentration (mol/L).

Please fill in: pIC50 reported for CC(C)(CCO)N1Cc2cc(Nc3nn([C@H]4CCCC[C@@H]4C#N)c4cc[nH]c(=O)c34)ccc2S1(=O)=O [Example 3-81] = 10.26

Please fill in: pIC50 reported for CC(C)(C)OC(=O)NCc1ccc(Nc2nn([C@H]3CCCC[C@@H]3C#N)c3cc[nH]c(=O)c23)cc1 [Example 3-32] = 9.35

Please fill in: pIC50 reported for CC(C)(O)c1cn(Cc2ccc(Nc3nn([C@H]4CCCC[C@@H]4C#N)c4cc[nH]c(=O)c34)cc2)nn1 [Example 3-52] = 9.80

Please fill in: pIC50 reported for N#C[C@H]1C[C@H](N2CCC2)CC[C@@H]1n1nc(Nc2ccc(C(F)(F)F)cc2)c2c(=O)[nH]ccc21 [Example 5-7] = 8.85

Please fill in: pIC50 reported for CC(C)(C)OC(=O)NCc1cc(Nc2nn([C@H]3CCCC[C@@H]3C#N)c3cc[nH]c(=O)c23)ccc1F [Example 3-35] = 8.49

***
Please fill in: pIC50 reported for CC(C)(C)OC(=O)CCN1Cc2cc(Nc3nn([C@H]4CCCC[C@@H]4C#N)c4cc[nH]c(=O)c34)ccc2S1(=O)=O [Example 3-150] = 10.18

Please fill in: pIC50 reported for CC(C)(C)NS(=O)(=O)c1ccc(Nc2nn([C@H]3CCC[C@@H]3C#N)c3cc[nH]c(=O)c23)cc1 [Example 3-107] = 9.66

###

molecular target: JAK1 (Homo sapiens (Human), UniProt P23458); assay: Jak biochemical HTRF assay, JAK1; conditions: HTRF biochemical assay, recombinant GST-tagged catalytic domain; read-out: JAK1 IC50
Reported IC50 values for the following molecules.
All answers are understood in nM, so give the number only.

Solved cases below.
Please fill in: IC50 reported for CC(O)(c1ccc(Nc2nn([C@H]3CCCC[C@@H]3C#N)c3cc[nH]c(=O)c23)cc1)C(F)(F)F (single isomer, unassigned) [Example 15-11] = 0.13

Please fill in: IC50 reported for N#C[C@H]1CCCC[C@@H]1n1nc(Nc2ccc(C3CCCN3)cc2)c2c(=O)[nH]ccc21 (single isomer, unassigned) [Example 3-71] = 0.27

Please fill in: IC50 reported for CN(C)[C@@H]1CC[C@H](n2nc(Nc3ccc(Cl)c(F)c3)c3c(=O)[nH]ccc32)[C@@H](C#N)C1 [Example 5-1] = 1.5

***
Please fill in: IC50 reported for CC(C)N1Cc2cc(Nc3nn([C@H]4CCCC[C@@H]4C#N)c4cc[nH]c(=O)c34)ccc2C1C (single isomer, unassigned) [Example 19-1] = 0.91

Please fill in: IC50 reported for CN(C)C(c1ccc(Nc2nn([C@H]3CCCC[C@@H]3C#N)c3cc[nH]c(=O)c23)cc1)C(F)(F)F (single isomer, unassigned) [Example 9-3] = 0.16

###

target: JAK1 (Homo sapiens (Human)); experiment: Jak biochemical HTRF assay, JAK1; conditions: HTRF biochemical assay, recombinant GST-tagged catalytic domain; read-out: JAK1 IC50
observationType: log10(IC50) (log10 of the value in nM)
Note the log scale: values are log10 of IC50 expressed in nM.

Please fill in: log10(IC50) reported for COCC(C)(C)CN1Cc2cc(Nc3nn([C@@H]4CCCCC[C@H]4C#N)c4cc[nH]c(=O)c34)ccc2S1(=O)=O (single isomer, unassigned) = -1.12

Please fill in: log10(IC50) reported for CC(C)(C)[S@@+]([O-])N[C@@H](c1cccc(Nc2nn([C@H]3CCCC[C@@H]3C#N)c3cc[nH]c(=O)c23)c1)C(F)(F)F = 0.20

Please fill in: log10(IC50) reported for CC(C)(c1ccc(Nc2nn([C@H]3CCCC[C@@H]3C#N)c3cc[nH]c(=O)c23)cc1)n1ccnn1 = -0.77

Please fill in: log10(IC50) reported for N#C[C@H]1C[C@@H](N2CCC2)CC[C@@H]1n1nc(Nc2ccc(OC(F)(F)F)cc2)c2c(=O)[nH]ccc21 = -0.06

***
Please fill in: log10(IC50) reported for N#C[C@H]1CCC[C@@H]1n1nc(Nc2ccc(C3(C(F)(F)F)CCCCN3)cc2)c2c(=O)[nH]ccc21 (single isomer, unassigned) [Example 15-71] = -1.16

Please fill in: log10(IC50) reported for N#C[C@H]1CCCC[C@@H]1n1nc(Nc2ccc(-c3ccon3)cc2)c2c(=O)[nH]ccc21 = -0.74

###

biological target: UniProt O60674; test: Jak biochemical HTRF assay, JAK2; settings: HTRF biochemical assay, recombinant GST-tagged catalytic domain; read-out: JAK2 IC50
Sequence (O60674 849-1124): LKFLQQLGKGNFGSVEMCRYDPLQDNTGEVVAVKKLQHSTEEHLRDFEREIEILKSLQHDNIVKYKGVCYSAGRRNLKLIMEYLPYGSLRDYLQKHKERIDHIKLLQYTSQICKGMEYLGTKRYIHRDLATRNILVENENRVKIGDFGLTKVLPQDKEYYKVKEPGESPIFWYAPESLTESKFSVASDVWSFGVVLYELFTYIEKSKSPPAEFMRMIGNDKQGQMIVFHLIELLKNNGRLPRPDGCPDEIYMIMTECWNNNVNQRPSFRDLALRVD
observationType: pIC50
Notebook: values listed as pIC50 are -log10 of the concentration (mol/L).

Solved cases below.
Please fill in: pIC50 reported for CC1(C)C(=O)Nc2cc(Nc3nn([C@H]4CCCC[C@@H]4C#N)c4cc[nH]c(=O)c34)ccc21 = 8.85

Please fill in: pIC50 reported for CC(C)C(c1ccc(Nc2nn([C@H]3CCCC[C@@H]3C#N)c3cc[nH]c(=O)c23)cc1)n1cc(C(=O)OC(C)(C)C)nn1 (single isomer, unassigned) [Example 15-58] = 8.51

Please fill in: pIC50 reported for N#C[C@H]1CCCC[C@@H]1n1nc(Nc2ccc(-c3ncno3)cc2)c2c(=O)[nH]ccc21 = 8.44

Please fill in: pIC50 reported for CN(C)[C@H]1CC[C@H](n2nc(Nc3ccc(OC(F)(F)F)cc3)c3c(=O)[nH]ccc32)[C@@H](C#N)C1 = 8.15

***
Please fill in: pIC50 reported for COCC(C)(O)c1cc(Nc2nn([C@H]3CCCC[C@@H]3C#N)c3cc[nH]c(=O)c23)ccc1S(C)(=O)=O (stereo partly shown) = 8.38

Please fill in: pIC50 reported for N#C[C@H]1CCC[C@@H]1n1nc(Nc2ccc(C(O)C(F)(F)F)cc2)c2c(=O)[nH]ccc21 (stereo partly shown) = 9.28

Please fill in: pIC50 reported for N#C[C@H]1CCC[C@@H]1n1nc(Nc2ccc(C(N)C(F)(F)F)cc2)c2c(=O)[nH]ccc21 (single isomer, unassigned) [Example 3-136] = 9.15
